// data source = ChEMBL document CHEMBL4196086

Provide the reported MIC of each item.
- Tested on: Mycobacterium tuberculosis
- Procedure details: Antimycobacterial activity against Mycobacterium tuberculosis H37Rv ATCC 27294 by MABA
- Type: functional

// Input: C[S+]([O-])c1nnc(-c2ncc([N+](=O)[O-])[nH]2)s1 (stereo not drawn) . Output its MIC only.
1.56 µg/mL

Dear colleague, please send me the reported MIC for CSc1nnc(-c2ncc([N+](=O)[O-])[nH]2)s1 when you can.
3.13 to 6.25 µg/mL

Using the record for CCCSc1nnc(-c2ncc([N+](=O)[O-])[nH]2)s1 , state its measured MIC.
3.13 to 6.25 µg/mL

Annotate the compound CCC[S+]([O-])c1nnc(-c2ncc([N+](=O)[O-])[nH]2)s1 (stereo not drawn) with its measured MIC.
1.56 µg/mL

Answer with reported MIC of CS(=O)(=O)c1nnc(-c2ncc([N+](=O)[O-])[nH]2)s1
> 6.25 µg/mL

Report measured MIC; entry is CCSc1nnc(-c2ncc([N+](=O)[O-])[nH]2)s1
3.13 to 6.25 µg/mL

Assign MIC to the following record: CCCS(=O)(=O)c1nnc(-c2ncc([N+](=O)[O-])[nH]2)s1
> 6.25 µg/mL

Consider the compound CC[S+]([O-])c1nnc(-c2ncc([N+](=O)[O-])[nH]2)s1 (stereo not drawn) and give its recorded MIC.
1.56 µg/mL

* * *

- System: Mycobacterium tuberculosis
- Procedure details: Antimycobacterial activity against Mycobacterium tuberculosis H37Rv in logarithmic phase
- Format: functional
Record form. Attribute: MIC. Fill in for each entry.

Specify reported MIC for the molecule shown: Nc1ccc(-c2nc3cc(-c4ccc5[nH]c(-c6ccc(N)cc6)nc5c4)ccc3[nH]2)cc1
0.5 to 16 µg/mL

Please report the measured MIC for COc1ccc(-c2nc3cc(-c4ccc5[nH]c(-c6ccc(OC)cc6)nc5c4)ccc3[nH]2)cc1
0.5 to 16 µg/mL

Supply MIC value. Item: COc1ccc(-c2nc3ccc(-c4ccc5nc(-c6ccccc6)[nH]c5c4)cc3[nH]2)cc1
0.25 to 1 µg/mL

Query MIC for COc1cccc(-c2nc3ccc(-c4ccc5nc(-c6cccc(OC)c6)[nH]c5c4)cc3[nH]2)c1
0.5 to 16 µg/mL

Using known records, supply MIC for CCOc1ccc(-c2nc3ccc(-c4ccc5nc(-c6ccc(OCC)cc6)[nH]c5c4)cc3[nH]2)cc1
0.5 to 16 µg/mL

Retrieve MIC measured for Oc1ccc(-c2nc3ccc(-c4ccc5nc(-c6ccc(O)cc6)[nH]c5c4)cc3[nH]2)cc1 and print it.
0.5 to 16 µg/mL

* * *

- Tested on: Mycobacterium tuberculosis
- Procedure details: Antimycobacterial activity against Mycobacterium tuberculosis H37Rv after 5 days by MABA
- Assay type: functional
- Conditions: 120 h
Metric: MIC (mg/L)
State the answer as a number, implicitly in mg/L.

Please report MIC for the following compound: NC(=O)c1cnccn1 [PYRAZINAMIDE]
3.12

Name the recorded MIC of the compound listed here: CN[C@@H]1[C@H](O[C@H]2[C@H](O[C@H]3[C@H](O)[C@@H](O)[C@H](N=C(N)N)[C@@H](O)[C@@H]3N=C(N)N)O[C@@H](C)[C@]2(O)C=O)O[C@@H](CO)[C@H](O)[C@H]1O [STREPTOMYCIN]
6.25

Let me know recorded MIC for NNC(=O)c1ccncc1 [ISONIAZID] , thanks.
6.25

Find the measured MIC of O=C(O)c1cn(C2CC2)c2cc(N3CCNCC3)c(F)cc2c1=O [CIPROFLOXACIN] and report it.
3.12
